Test system: NCI/ADR-RES ovarian
Assay: NCI-60 one-dose screen, 48 h
Conditions: 10 µM unless noted
This is part of a sample that, as a whole, favours compounds with a hit. Of some 83,000 tested, about 20% had one in any assay. The source made the active and inactive calls. Rule for the calls: active = growth percent below 10; inactive = the rest.
Your reply should match one of these outcome classes. active, inactive

| compound | classification |
| --- | --- |
| O=C(O)c1cccc(CCl)c1 | inactive |

**Q:** Test call for this compound, please: [O]=[Sn]([CH]1CCCCC1)[CH]1CCCCC1
**A:** active

**Q:** Test call for this compound, please: COc1ccc(C2=NN(c3ccccc3)C(c3sc(N(CCCl)CCCl)nc3Cl)C2)cc1 (configuration not stated)
**A:** inactive

**Q:** Test call for this compound, please: C=CCc1ccc(OC(=O)Cc2ccccc2)c(OC)c1
**A:** inactive

**Q:** Test call for this compound, please: O=C(C(=O)N1CCCC1)c1cn(CCCCCn2cc(C(=O)C(=O)N3CCCC3)c3ccccc32)c2ccccc12
**A:** inactive

**Q:** Test call for this compound, please: CN(C)P1(N(C)C)=NP(N(C)C)(N(C)C)=NP(N(C)C)(N(C)C)=N1
**A:** inactive

**Q:** Test call for this compound, please: COC(=O)C(=[N+]=[N-])C(=O)OC
**A:** inactive
